Reference for the values: patent US20240228497A1

System: pSLP76 (S376) level in Jurkat cell line
Assay: Cellular pSLP76(S376) HTRF Assay in Jurkat cells
Format: cell-based
Details: 2 h compound treatment, stimulated with 0.05 μg/mL anti-human CD3 (OKT3) for 30 min
pIC50: −log10 of the molar value.
Assay Endpoint: pIC50

Worked cases, pIC50 given:
- Compound: "Cc1cc(-c2c[nH]c3ncc(-c4cc(C)c5c(c4)CCN(CCC(=O)NC4CCN(c6ccc(N7CCC(=O)NC7=O)cc6)CC4)C5)nc23)ccc1C(=O)N(C)C [Example 4]"
  Observed: 6.34
- Compound: "Cc1cc(-c2cnc3[nH]cc(-c4ccc(C(=O)N(C)C[C@H](C)O)cc4)c3c2)cc2c1CN(CCC(=O)N1CCN(c3ccc(N4CCC(=O)NC4=O)cc3)CC1)CC2 [Example 9]"
  Observed: 6.74
- Compound: "Cc1cc(-c2c[nH]c3ncc(-c4cc(C)c5c(c4)CCN(CCC(=O)NCC4CCN(c6ccc(C7CCC(=O)NC7=O)cc6)CC4)C5)nc23)ccc1C(=O)N(C)C (stereo not drawn) [Example 2]"
  Observed: 6.29
- Compound: "Cc1cc(-c2cnc3[nH]cc(-c4ccc(C(=O)N(C)C)cc4)c3n2)cc2c1CN(CCC(=O)N1CCN(c3ccc(N4CCC(=O)NC4=O)cc3)CC1)CC2 [Example 5]"
  Observed: 6.94

P = Cc1cc(-c2cnc3[nH]cc(-c4ccc(C(=O)N(C)C)cc4)c3c2)cc2c1CN(CCC(=O)N1CCN(c3ccc(N4CCC(=O)NC4=O)cc3)CC1)CC2 [Example 6]
Q = Cc1cc(-c2c[nH]c3ncc(-c4cc(C)c5c(c4)CCN(CCNC(=O)CC4CCN(c6ccc(C7CCC(=O)NC7=O)cc6)CC4)C5)nc23)ccc1C(=O)N(C)C (stereo not drawn) [Example 8]
I need your help: which of the pair P , Q has higher pIC50? The response must carry the label of the picked entry.
P
(P: 7.06, Q: 6.30)

* * *

Target: HPK1 protein (Homo sapiens)
Construct: host or cells: human PBMC (CD4+ and CD8+ T cells gated in the FACS assay)
Experiment: HPK1 Protein Degradation Assay in Human PBMC (Western Blot)
Type: cell-based
Details: 24 h compound incubation
Assay Endpoint: Dmax (%)

Use the examples below as a reference point.
- Compound: "Cc1cc(-c2c[nH]c3ncc(-c4cc(C)c5c(c4)CCN(CCC(=O)NCC4CCN(c6ccc(C7CCC(=O)NC7=O)cc6)CC4)C5)nc23)ccc1C(=O)N(C)C (stereo not shown)"
  Study Target: "HPK1 protein (Homo sapiens)"
  Value Units: "%"
  Dmax: 91
- Compound: "Cc1cc(-c2c[nH]c3ncc(-c4cc(C)c5c(c4)CCN(CCC(=O)NC4CCN(c6ccc(N7CCC(=O)NC7=O)cc6)CC4)C5)nc23)ccc1C(=O)N(C)C"
  Study Target: "HPK1 protein (Homo sapiens)"
  Value Units: "%"
  Dmax: 95

P = Cc1cc(-c2c[nH]c3ncc(-c4cc(C)c5c(c4)CCN(CCC(=O)N4CCN(c6ccc(N7CCC(=O)NC7=O)cc6)CC4)C5)nc23)ccc1C(=O)N(C)C
Q = Cc1cc(-c2c[nH]c3ncc(-c4cc(C)c5c(c4)CCN(CCNC(=O)C4CCN(c6ccc7c(c6)C(=O)N(C6CCC(=O)NC6=O)C7=O)CC4)C5)nc23)ccc1C(=O)N(C)C (stereo not shown)
Lab notebook, comparison: P versus Q , higher Dmax goes to which? Reply briefly: the label of your chosen item.
P

* * *

System: pSLP76 (S376) level in Jurkat cell line
Assay: Cellular pSLP76(S376) HTRF Assay in Jurkat cells
Format: cell-based
Settings: 2 h compound treatment, stimulated with 0.05 μg/mL anti-human CD3 (OKT3) for 30 min
Method: Cellular pSLP76(S376) HTRF Assay Jurkat cell line was used in this study. Cells were maintained in RPMI 1640 supplemented with heat-inactivated 10% fetal bovine serum (Thermo Fisher), 50 units/mL penicillin and streptomycin (Thermo Fisher) and kept at 37° C. in a humidified atmosphere of 5% CO2 in air. […] Then the cells were lysed, and the pSLP76 (S376) level in the cell lysates was detected by HTRF kit (Cisbio). […] FRET signals (655 nm) were measured using a PHERAstar FSX reader (BMG Labtech). […]
Assay Endpoint: IC50 (nM)

- Compound: "Cc1cc(-c2c[nH]c3ncc(-c4cc(C)c5c(c4)CCN(CCC(=O)N4CCN(c6ccc(N7CCC(=O)NC7=O)cc6)CC4)C5)nc23)ccc1C(=O)N(C)C"
  IC50 / nM: 193

1 = Cc1cc(-c2cnc3[nH]cc(-c4ccc(C(=O)N(C)C[C@H](C)O)cc4)c3n2)cc2c1CN(CCC(=O)N1CCN(c3ccc(N4CCC(=O)NC4=O)cc3)CC1)CC2
2 = Cc1cc(-c2c[nH]c3ncc(-c4cc(C)c5c(c4)CCN(CCNC(=O)C4CCN(c6ccc7c(c6)C(=O)N(C6CCC(=O)NC6=O)C7=O)CC4)C5)nc23)ccc1C(=O)N(C)C (stereo not drawn)
Please indicate which item has the smaller measured IC50: 1 versus 2 Respond using the label that marks the chosen record.
1

* * *

Target: HPK1 protein (Homo sapiens, UniProt Q92918)
Construct: host or cells: human PBMC (CD4+ and CD8+ T cells gated in the FACS assay)
Sequence (Q92918 whole entry): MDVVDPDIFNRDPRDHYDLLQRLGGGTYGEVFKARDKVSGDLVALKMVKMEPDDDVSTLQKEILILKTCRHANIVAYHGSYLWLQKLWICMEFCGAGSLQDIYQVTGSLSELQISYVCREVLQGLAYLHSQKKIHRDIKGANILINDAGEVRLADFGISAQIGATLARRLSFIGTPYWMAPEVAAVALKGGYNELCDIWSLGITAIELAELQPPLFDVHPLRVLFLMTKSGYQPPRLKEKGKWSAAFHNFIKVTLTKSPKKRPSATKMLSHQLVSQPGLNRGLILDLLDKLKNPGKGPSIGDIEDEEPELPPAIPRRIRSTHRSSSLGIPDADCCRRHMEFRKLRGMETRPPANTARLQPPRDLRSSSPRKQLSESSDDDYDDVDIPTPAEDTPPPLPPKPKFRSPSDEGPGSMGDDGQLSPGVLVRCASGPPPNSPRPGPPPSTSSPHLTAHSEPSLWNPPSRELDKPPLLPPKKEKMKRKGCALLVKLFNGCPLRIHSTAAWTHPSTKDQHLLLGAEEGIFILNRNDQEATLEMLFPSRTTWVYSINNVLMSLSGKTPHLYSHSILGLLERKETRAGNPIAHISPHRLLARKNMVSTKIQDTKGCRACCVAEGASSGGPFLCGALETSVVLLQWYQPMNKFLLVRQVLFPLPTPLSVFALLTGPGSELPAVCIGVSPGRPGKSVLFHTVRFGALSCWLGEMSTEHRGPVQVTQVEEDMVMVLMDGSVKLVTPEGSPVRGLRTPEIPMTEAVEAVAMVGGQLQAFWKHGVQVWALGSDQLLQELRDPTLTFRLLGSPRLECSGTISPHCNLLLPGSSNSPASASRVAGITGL
Assay: HPK1 Protein Degradation Assay in Human PBMC (FACS)
Format: cell-based
Conditions: CD8+ T Cells, 24 h compound treatment
Assay Endpoint: Protein degradation DC90, CD8+ T Cells (nM)

Example cases with answers are listed next.
- Compound String: "Cc1cc(-c2cnc3[nH]cc(-c4ccc(C(=O)N(C)C)cc4)c3n2)cc2c1CN(CCC(=O)N1CCN(c3ccc(N4CCC(=O)NC4=O)cc3)CC1)CC2"
  Protein degradation DC90, CD8+ T Cells / nM: 128
- Compound String: "Cc1cc(-c2cnc3[nH]cc(-c4ccc(C(=O)N(C)C[C@H](C)O)cc4)c3n2)cc2c1CN(CCC(=O)N1CCN(c3ccc(N4CCC(=O)NC4=O)cc3)CC1)CC2"
  Protein degradation DC90, CD8+ T Cells / nM: 388

a = Cc1cc(-c2cnc3[nH]cc(-c4ccc(C(=O)N(C)C[C@H](C)O)cc4)c3c2)cc2c1CN(CCC(=O)N1CCN(c3ccc(N4CCC(=O)NC4=O)cc3)CC1)CC2
b = Cc1cc(-c2cnc3[nH]cc(-c4ccc(C(=O)N(C)C)cc4)c3c2)cc2c1CN(CCC(=O)N1CCN(c3ccc(N4CCC(=O)NC4=O)cc3)CC1)CC2
I'd appreciate it if you could identify which of a and b has the greater Protein degradation DC90, CD8+ T Cells. Identify your selection by its label.
a
(a: 495 nM, b: 104 nM)

* * *

Target: HPK1 protein (Homo sapiens, UniProt Q92918)
Construct: host or cells: human PBMC (CD4+ and CD8+ T cells gated in the FACS assay)
Assay: HPK1 Protein Degradation Assay in Human PBMC (FACS)
Assay type: cell-based
Conditions: CD4+ T Cells, 24 h compound treatment
Assay Endpoint: Protein degradation DC90, CD4+ T Cells (nM)

A = Cc1cc(-c2cnc3[nH]cc(-c4ccc(C(=O)N(C)C)cc4)c3c2)cc2c1CN(CCC(=O)N1CCN(c3ccc(N4CCC(=O)NC4=O)cc3)CC1)CC2
B = Cc1cc(-c2cnc3[nH]cc(-c4ccc(C(=O)N(C)C[C@H](C)O)cc4)c3n2)cc2c1CN(CCC(=O)N1CCN(c3ccc(N4CCC(=O)NC4=O)cc3)CC1)CC2
Endpoint returns the identifier whose Protein degradation DC90, CD4+ T Cells is numerically larger, either A or B . Please indicate the selected item by its label.
B

* * *

Target: HPK1 protein (Homo sapiens)
Construct: host or cells: human PBMC (CD4+ and CD8+ T cells gated in the FACS assay)
Assay: HPK1 Protein Degradation Assay in Human PBMC (FACS)
Format: cell-based
Settings: CD8+ T Cells, 24 h compound treatment, read-out: Protein degradation DC50, CD8+ T Cells
Assay Endpoint: DC50 (µM)

- Compound String: "Cc1cc(-c2cnc3[nH]cc(-c4ccc(C(=O)N(C)C)cc4)c3n2)cc2c1CN(CCC(=O)N1CCN(c3ccc(N4CCC(=O)NC4=O)cc3)CC1)CC2"
  Value Units: "µM"
  DC50: 0.017

1 = Cc1cc(-c2cnc3[nH]cc(-c4ccc(C(=O)N(C)C[C@H](C)O)cc4)c3n2)cc2c1CN(CCC(=O)N1CCN(c3ccc(N4CCC(=O)NC4=O)cc3)CC1)CC2
2 = Cc1cc(-c2cnc3[nH]cc(-c4ccc(C(=O)N(C)C)cc4)c3c2)cc2c1CN(CCC(=O)N1CCN(c3ccc(N4CCC(=O)NC4=O)cc3)CC1)CC2
3 = Cc1cc(-c2cnc3[nH]cc(-c4ccc(C(=O)N(C)C[C@H](C)O)cc4)c3c2)cc2c1CN(CCC(=O)N1CCN(c3ccc(N4CCC(=O)NC4=O)cc3)CC1)CC2
Arrange these 3 molecules in increasing order of DC50. Order the labels as requested and give them as your answer.
2, 1, 3
